Quick reference for Papp among some compounds
Experiment: Caco-2 permeability assay (CacoReady kit)
Type: in vitro ADME
Conditions: human, Caco-2, Caco-2 barrier, CacoReady kit; above 1×10^−6 cm/s classified as permeable

Recorded results for 5 compounds are shown here.
Compound	Papp
CNC(=O)C(=O)CC[C@H](NC(=O)c1cc(C(=O)OC)cc([N+](=O)[O-])c1)C(=O)Nc1cccn(CC(=O)NC2C3CC4CC(C3)CC2C4)c1=O (stereo partly shown) [II-62]	1 to 10 ×10⁻⁶ cm/s
CCCCCNC(=O)C(=O)CC[C@H](NC(=O)c1oc2ccccc2c1C)C(=O)Nc1cccn(CC(=O)NC2C3CC4CC(C3)CC2C4)c1=O (stereo partly shown) [II-116]	1 to 10 ×10⁻⁶ cm/s
O=C(Cn1cccc(NC(=O)[C@H](CCC(=O)C(=O)Nc2ccccc2)NC(=O)c2cc3ccccc3o2)c1=O)NC1C2CC3CC(C2)CC1C3 (stereo partly shown) [II-122]	1 to 10 ×10⁻⁶ cm/s
CNC(=O)C(=O)CC[C@H](NC(=O)[C@@H]1CCCN1C)C(=O)Nc1cccn(CC(=O)NC2C3CC4CC(C3)CC2C4)c1=O (stereo partly shown) [II-54]	< 1 ×10⁻⁶ cm/s
CNC(=O)C(=O)CC[C@H](NC(=O)c1nc(Cl)sc1Cl)C(=O)Nc1cccn(CC(=O)NC2C3CC4CC(C3)CC2C4)c1=O (stereo partly shown) [II-32]	1 to 10 ×10⁻⁶ cm/s

Now let's try a different one.
Consider the compound shown here: O=C(Cn1cccc(NC(=O)[C@H](CCC(=O)C(=O)NC2CCCC2)NC(=O)c2cnc3ccc(OC(F)(F)F)cc3c2O)c1=O)N[C@@H]1C[C@@H]2CC[C@H]1C2 [II-180] What is its recorded Papp?
< 1 ×10⁻⁶ cm/s

====

Biological target: recombinant human transglutaminase 2 (Homo sapiens, UniProt P21980)
Construct: purchased Zedira T022
Sequence (P21980 whole entry): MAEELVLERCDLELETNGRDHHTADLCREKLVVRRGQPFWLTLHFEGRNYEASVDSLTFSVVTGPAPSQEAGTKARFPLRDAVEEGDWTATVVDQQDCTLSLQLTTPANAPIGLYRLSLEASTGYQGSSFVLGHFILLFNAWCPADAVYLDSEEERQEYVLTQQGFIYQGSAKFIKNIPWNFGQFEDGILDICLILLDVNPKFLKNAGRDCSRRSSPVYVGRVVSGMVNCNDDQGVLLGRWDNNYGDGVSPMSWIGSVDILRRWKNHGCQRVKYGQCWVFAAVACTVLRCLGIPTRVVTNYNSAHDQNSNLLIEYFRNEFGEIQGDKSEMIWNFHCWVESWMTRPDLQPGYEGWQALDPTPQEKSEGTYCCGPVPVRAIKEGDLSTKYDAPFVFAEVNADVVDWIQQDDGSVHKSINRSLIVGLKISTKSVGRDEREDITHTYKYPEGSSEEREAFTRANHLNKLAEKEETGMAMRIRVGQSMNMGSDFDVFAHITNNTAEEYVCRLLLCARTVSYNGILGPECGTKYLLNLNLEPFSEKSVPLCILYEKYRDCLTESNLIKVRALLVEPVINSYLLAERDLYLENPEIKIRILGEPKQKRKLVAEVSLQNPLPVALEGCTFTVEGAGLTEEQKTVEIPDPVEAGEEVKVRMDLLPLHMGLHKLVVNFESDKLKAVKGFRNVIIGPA
Test: Transglutaminase assay (DCC-assay): incorporation of dansylcadaverine into dimethylcasein
Format: biochemical
Details: recombinant human TG2 10 nM; dansylcadaverine incorporation into dimethylcasein; read-out: IC50 TG2
Measurement Type: IC50

Molecule	Recorded Value
O=C(Cn1cccc(NC(=O)[C@H](CCC(=O)C(=O)NC2CCCCC2)NC(=O)c2cc3ccccc3nn2)c1=O)NC12CC(C1)C2 [II-181]	400 to 2500 nM
O=C(Cn1cccc(NC(=O)[C@H](CCC(=O)C(=O)NC2CCCC2)NC(=O)c2nc3ccccc3s2)c1=O)N[C@@H]1C[C@@H]2CC[C@H]1C2 [II-178]	40 to 400 nM

Lab note: need IC50 for CNC(=O)C(=O)CC[C@H](NC(=O)c1oc2ccccc2c1C)C(=O)Nc1cccn(CC(=O)N(C)C2C3CC4CC(C3)CC2C4)c1=O (stereo partly drawn) [II-67] on recombinant human transglutaminase 2 (Homo sapiens, UniProt P21980), anyone have it?
400 to 2500 nM

====

Each entry below lists one item and its recorded logD value.
Assay: logD by shake flask method (octanol / PBS pH 7.4, HPLC)
Assay type: physicochemical
Conditions: octanol / PBS pH 7.4, shake flask

Molecule	logD
CNC(=O)C(=O)CC[C@H](NC(=O)c1nonc1N)C(=O)Nc1cccn(CC(=O)NC23CC(C2)C3)c1=O [II-189]	< 1
CNC(=O)C(=O)CC[C@H](NC(=O)c1sccc1Br)C(=O)Nc1cccn(CC(=O)NC2C3CC4CC(C3)CC2C4)c1=O (stereo partly shown) [II-42]	1 to 3
CNC(=O)C(=O)CC[C@H](NC(=O)c1sc(Br)cc1C)C(=O)Nc1cccn(CC(=O)NC2C3CC4CC(C3)CC2C4)c1=O (stereo partly shown) [II-21]	3 to 5

--- query ---
If you can, please state the reported logD value of CCc1nnsc1C(=O)N[C@@H](CCC(=O)C(=O)NC)C(=O)Nc1cccn(CC(=O)NC2C3CC4CC(C3)CC2C4)c1=O (stereo partly shown) [II-204] .
1 to 3
